Ref: the RNAGym collection of RNA variant scans (doi:10.1093/nar/gkz1192)

B1: CPEB3 Ribozyme (parent)
chain: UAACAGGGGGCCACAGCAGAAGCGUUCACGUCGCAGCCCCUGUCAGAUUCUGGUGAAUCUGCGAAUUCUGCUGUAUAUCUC

- Variants of: B1
- EXPERIMENT_SUMMARY: self-cleavage, relative activity (ratio to wild type); higher = more cleavage; in vitro, sequencing
The variants listed here are annotated with their self-cleavage.
OUTCOME_MEASURE: self-cleavage

| SEQ_STRING | REPORTED |
| --- | --- |
| UAACAGGGGGCCACUGCAGAAGCGUUCACGUCGCAGCCCCUGUCAGAUUCUGGUGAAUCUGCGAGUUCUGCUGUAUAUCUC | 0.29 |
| UAACAGGGGGCCAAAGCAGAAGCGUUCACGUCGCAGCCCCUGUCAGAUUCUGGGGAAUCUGCGAAUUCUGCUGUAUAUCUC | 1.21 |
| UAACAGGGGGCCACAGCAGAAGCGUUCACGUCGCAGCCCCUGUCAGAUUCUGGUGAUUCUGCGAAUUCUGCUGCAUAUCUC | 1.03 |
| UAACAGGGGGCCACAGCAGAAGCGUUCAUGUCGCAGCCCCUGUCAGAUUCUGGUGAAUCUGCGAAUUCUGCUGUAUAGCUC | 0.61 |
| UAACAGGGGGCCACAGCAGAGGCGUUCACGUCGCAGCCCCUGUCAGAUUCUGGUGAAUCUGCUAAUUCUGCUGUAUAUCUC | 0.61 |
| UAACAGGGGGCCACAGCAGAAGCGUUCACGUCGCAGCCCCUGUCAGAUUCUGGUGAAUCUGCGGAUUCUGCUGCAUAUCUC | 1.15 |
| UAACAGGGGGCCGCAGCAGAAGCGUUCACUUCGCAGCCCCUGUCAGAUUCUGGUGAAUCUGCGAAUUCUGCUGUAUAUCUC | 0.18 |
| UAACAGGGGGCCACAGCAGAAGCGUUCACGUCGCAGCCCCUGUCAGAUUCUGGCGAAUCUGCGAAUUCUGCUGUAUAUAUC | 1.18 |
| UAACAGGGGACCACAGCAGAAGCGGUCACGUCGCAGCCCCUGUCAGAUUCUGGUGAAUCUGCGAAUUCUGCUGUAUAUCUC | 0.14 |
| CAACAGGGGGCCACAGCAGAAGCGUUCACGUCGCAGCCCCUGUCAGAUUCUGGUGAAUCUGCGAUUUCUGCUGUAUAUCUC | 0.31 |
| UAACAGGGGGCCACCGCAGAAGCGUUCACGUCGCAGCCCCUGUCAGAUUCUGGCGAAUCUGCGAAUUCUGCUGUAUAUCUC | 0.98 |
| UAACAGGGGGCCACAGCAGAAGCGUUCACGUCGCCGCCCCUGUCAGAUUCUGGUGAAUCUGCGAAUUCUGCUGUAUAUCUU | 0.93 |
| UAACAGGGGGCCACAGCAGAAGCGUUCACGUCGCAGCCCCUGGCAGAUCCUGGUGAAUCUGCGAAUUCUGCUGUAUAUCUC | 0.28 |
| UAACAGGGGGCCACAGCAGAAGCGUUCACGUCGCAGCCCCUGUCAGUUUCUGGUGAAUCUGCGAUUUCUGCUGUAUAUCUC | 0.16 |
| UAACAGGGGGCCACAGCAGAGGCGUUCACGUCGCAGCCCCUGUCAGAUUCUGGUGAAUCUGCGAAUUUUGCUGUAUAUCUC | 0.43 |
| UAUCAGGGGGCCACAGCAGAAGCGUUCACGUCGCAGCCCCUGUCAGAUUCUGGCGAAUCUGCGAAUUCUGCUGUAUAUCUC | 1.04 |
| UAACAGGGGGCCACAGCAGAAGCGUUCUCGUCGCAGCCCGUGUCAGAUUCUGGUGAAUCUGCGAAUUCUGCUGUAUAUCUC | 0.19 |
| UAACAGGGGGCCACAGCAGAAGAGCUCACGUCGCAGCCCCUGUCAGAUUCUGGUGAAUCUGCGAAUUCUGCUGUAUAUCUC | 0.36 |
| UAACAGGGGGCCACAGCAGAAGCGUUCACGACGCAGCCCCUGUCAGAUCCUGGUGAAUCUGCGAAUUCUGCUGUAUAUCUC | 0.22 |
| UAACAGGGAGCCACAGCAGAAGCGUUCACGUCGCAGCCCCUGUCAGAUUCCGGUGAAUCUGCGAAUUCUGCUGUAUAUCUC | 0.37 |
| UAACAGGGGGCCACAGCAGAAGCGUUCACGUCGCAGCCCCUGUCAGAUUCUGGCGAAUCUGCGACUUCUGCUGUAUAUCUC | 0.4 |
| UAACAGGGGGCCACAGCAGAAGCGUUCACGUCGUAGCCCCUGUCAGAUUCUGGUGAAUCUGCGAAUUCUACUGUAUAUCUC | 0.14 |
